Values from patent US9090593B2

target: full length recombinant Pim-1 protein (Homo sapiens, UniProt P11309); construct: by full length recombinant Pim-1, Pim-2, or Pim-3 protein; hexahistidine tag followed by a thrombin cleavage site (N); made in house; host or cells: Sf9 (baculovirus) or E. coli (pET28); test: Pim-1 enzyme assay (HTRF, phosphorylation of biotinylated-BAD (S112) peptide); type: biochemical; conditions: enzyme assay, Pim-1; read-out: Pim_1_IC50
Sequence (P11309 whole entry): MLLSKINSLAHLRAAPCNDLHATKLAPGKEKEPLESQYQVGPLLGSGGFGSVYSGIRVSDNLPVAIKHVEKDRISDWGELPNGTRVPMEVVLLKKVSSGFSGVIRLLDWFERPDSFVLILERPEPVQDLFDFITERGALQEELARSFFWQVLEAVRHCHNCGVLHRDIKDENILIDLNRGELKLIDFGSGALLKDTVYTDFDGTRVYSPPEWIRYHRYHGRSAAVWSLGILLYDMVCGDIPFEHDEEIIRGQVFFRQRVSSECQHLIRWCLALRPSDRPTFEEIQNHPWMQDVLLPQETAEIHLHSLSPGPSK
property.name: IC50 (nM)

compound | property.name | measured
NC1CCN(c2nccc(-c3n[nH]c4ccc(-c5c(F)cccc5F)cc34)n2)CC1 | IC50 | 2
CC(C)NC(=O)c1ccc2[nH]cc(-c3cncc(N4CCC(N)CC4)n3)c2c1 | IC50 | 166
O[C@H]1CCN(c2cncc(-c3n[nH]c4ccc(-c5c(F)cccc5F)cc34)n2)C1 | IC50 | 168
NC1CCN(c2cncc(-c3n[nH]c4ccc(-c5c(F)cccc5F)cc34)c2)CC1 | IC50 | 124
COc1cc(OC)cc(-c2ccc3[nH]nc(-c4cncc(N5CCC(N)CC5)n4)c3c2)c1 | IC50 | 6

I = CN1CCN(c2ccc3[nH]nc(-c4cncc(N5CCC(N)CC5)n4)c3c2)C1=O
II = NC1CCN(c2cncc(-c3n[nH]c4ccc(-c5ccnc6cc(OC(F)(F)F)ccc56)cc34)n2)CC1
Enquiry: Of the two listed items, I and II , which carries the larger IC50 figure? I would appreciate it if you answered with the label of your choice.
Return: II

a = NC1CCN(c2cncc(-c3n[nH]c4ccc(-c5cncnc5)cc34)n2)CC1
b = c1cc(C2CC2)cc(-c2ccc3[nH]nc(-c4cncc(O[C@@H]5CCCNC5)n4)c3c2)n1
c = CC(C)(C)NC(=O)c1ccc(F)c(-c2ccc3[nH]nc(-c4cncc(O[C@@H]5CCCNC5)n4)c3c2)c1
d = Fc1cccc(F)c1-c1ccc2[nH]nc(-c3cncc(O[C@@H]4CNCC[C@H]4F)n3)c2c1 (single isomer, unassigned) [Example 19]
Enquiry: Please list these compounds in decreasing order of IC50. Please respond with the labels ordered as the question requires.
Return: b, c, a, d
(b: 42 nM, c: 27 nM, a: 12 nM, d: 5 nM)

A = Nc1nccc(N2CCc3ccc(-c4ccc5[nH]nc(-c6cncc(N7CCC(N)CC7)n6)c5c4)cc32)n1
B = NC1CCN(c2cncc(-c3n[nH]c4ccc(-c5ccccc5F)cc34)n2)CC1
C = CN(c1cncc(-c2n[nH]c3ccc(-c4c(F)cccc4F)cc23)n1)C1CCCNC1 (centres unmarked)
D = NC1CCN(c2cncc(-c3n[nH]c4ccc(-c5cccc(F)n5)cc34)n2)CC1
E = NC1CCN(c2cncc(-c3n[nH]c4ccc(-c5ccnc(N6CCOCC6)n5)cc34)n2)CC1
Enquiry: Arrange the 5 entries by IC50 so the values rise. Record the ranking as a list of labels in the requested order.
Return: E, B, D, C, A
(E: 1 nM, B: 2 nM, D: 4 nM, C: 6 nM, A: 17 nM)

P = FC(F)(F)c1cccc(-c2ccc3[nH]nc(-c4cncc(O[C@@H]5CCCNC5)n4)c3c2)n1
Q = c1cc(C2CC2)nc(-c2ccc3[nH]nc(-c4cncc(O[C@@H]5CCCNC5)n4)c3c2)n1
Enquiry: // which entry reports the smaller IC50, P or Q ? Your answer should be the label attached to the chosen record.
Return: Q
